system_name: Acetylcholinesterase (Electrophorus electricus)
protocol_notes: Inhibition of electric eel AchE using acetylthiocholine iodide as substrate at 250 uM by Ellman method
Activity calls are given as the source filed them. The calls are words filed in the database; no cut-off is given here.
measurement_label: inhibition

A selection of reference data follows.
CCCCCCCCO[C@H]1[C@H](O)[C@@H](O)CN(CCCCCCCC)[C@@H]1CO : inactive
CCCc1cn(CCCCCCN2C[C@H](O)[C@@H](O)[C@H](O)[C@H]2CO)nn1 : inactive
C=CC[C@H]1NC[C@@H](O)[C@H](O)[C@H]1O : inactive
CCCCCCO[C@H]1CNC[C@@H](O)[C@@H]1O : inactive
C=CC[C@@H]1[C@H](O)[C@@H](O)[C@H](O)CN1CCCCCCCC : < 50%

Go through the list and state inhibition for each entry.
1. CCCCCCCCC[C@H]1NC[C@@H](O)[C@H](O)[C@H]1O
2. CCCCCC[C@H]1NC[C@@H](O)[C@H](O)[C@H]1O
3. CCCCCC[C@H]1N[C@@H](CO)[C@@H](O)[C@H](O)[C@H]1O
4. C#CC[C@H]1NC[C@@H](O)[C@H](O)[C@H]1OCc1ccccc1

Data returned:
1. inactive
2. inactive
3. inactive
4. inactive

Sure, the documented inhibition for O[C@@H]1[C@@H](O)[C@@H](Cc2cn(Cc3cc(OCc4ccccc4)cc(OCc4ccccc4)c3)nn2)NC[C@H]1O is < 50%
